- Tested on: NCI-H226
- testProtocol: NCI tumour cell line growth inhibition, 48 h
Where a name gives a salt, the structure may show the parent alone. Calls of active or inactive are those of the source. No stated cut-off is given here; in the data, active = GI50 up to about 1.1 µM and inactive = higher. Where a SMILES comes first, the peptide text is derived from it. Residues, ends and D or L forms follow the SMILES beside them. The star is where a group is joined. *: point of attachment. Fmoc = O=C(OCC1c2ccccc2-c2ccccc21)*; Tfa = O=C(C(F)(F)F)*; OtBu = CC(C)(C)O*
Please reply with one of these outcomes: active, inactive

Prompt: // param item: C=CCOC1=C2CC[C@H](O)[C@@]2(C)CCC1=O ; yields the recorded call
Response: inactive

Prompt: What did this assay record as the result for O/N=C/c1cc2c(cc1Br)OCO2 ?
Response: inactive

Prompt: Would you mind telling me which call this test gave COc1cc(C2c3cc4c(cc3[C@@H](Nc3cccc([N+](=O)[O-])c3)C3COC(=O)[C@H]23)OCO4)cc(OC)c1O (stereo partly drawn) ?
Response: inactive

Prompt: # lookup: test call for CN(C)CCNC(=O)c1ccc(Cl)c2ccc(-c3ccccc3)nc12
Response: inactive

Prompt: For CC(=O)c1cccc(NC(=O)C(=O)NNc2nnc(S)n2N)c1 , which call appears in the assay record?
Response: inactive

Prompt: Returns: the outcome recorded for CCOC(=O)CCC(NC(=O)c1ccc(Oc2nc3ccc(C(F)(F)F)cc3nc2-c2ccccc2)cc1)C(=O)OCC (stereo not drawn) in this assay.
Response: inactive

Prompt: How was OCC1C2C=CC(O2)[C@H]1CO (stereo partly drawn) classified in this test?
Response: inactive

Prompt: Hello, I am checking results. What call was entered for O=C1CS(=O)(=O)C(c2cccc(Oc3ccccc3)c2)N1c1cc(Cl)ccc1Cl (stereo not drawn) ?
Response: inactive

Prompt: For COc1cc(S(=O)(=O)Nc2ccc(-c3csc(N4C(=O)C(C)SC4c4cccc(Oc5ccccc5)c4)n3)cc2)ccc1Cl (stereo not drawn) , which call appears in the assay record?
Response: inactive

Prompt: Returns: the outcome recorded for COC(=O)c1cc2cc3c(c(O)c2c(=O)o1)O[C@@]1(Oc2c(O)c4c(c(O)c2[C@H]1OC1CC(OC)C(O)C(C)O1)C(=O)C=C(OC)C4=O)[C@H](O)C3 (stereo partly drawn) in this assay.
Response: inactive

Prompt: Fill in: this test's call for COc1ccc(CNc2nc(NCc3ccc(OC)c(OC)c3)nc(NC3CCCCC3)n2)cc1 is ___
Response: inactive

Prompt: Please let me know the test result on file for COC(=O)C1=C(C)NC2=C(C(=O)c3ccccc32)C1c1cn(-c2ccccc2)nc1-c1ccccc1 (stereo not drawn) .
Response: inactive

Prompt: Lab log entry: Cc1cccc(C)c1NC(=O)C(=O)Cc1nc2ccccc2s1 — outcome as called in the assay?
Response: inactive

Prompt: Just curious, what result did [N-]=[N+]=NC(c1cn(C2CC(O)C(CO)O2)c(=O)[nH]c1=O)C(I)I (stereo not drawn) get here?
Response: inactive

Prompt: Given S=C1NC2=C(COc3ccccc32)C(c2ccc(Cl)cc2)N1 (stereo not drawn) , state the outcome it received in this test.
Response: inactive

Prompt: Lab log entry: O=c1[nH]cnc2sc(=S)c3c(c12)CCC3 — outcome as called in the assay?
Response: inactive

Prompt: How did this test come out for O=c1[nH]c2c(nc1NC13CC4CC(CC(C4)C1)C3)c(=O)oc1ccccc12 ?
Response: inactive

Prompt: Called result for O=C(c1ccc(O)c([N+](=O)[O-])c1)c1ccc(O)c([N+](=O)[O-])c1
Response: inactive

Prompt: Call for entry CN(C)CCNc1ccc2ncnc3c2c1C(=O)c1ccccc1-3 :
Response: active

Prompt: Please share the test call associated with NC(=O)N/N=C1/c2ccccc2-n2nccc21 .
Response: inactive

Prompt: For this molecule, state the assay outcome: O=C(O)CCCSc1nc2ccccc2s1
Response: inactive

Prompt: Just curious, what result did CC(C)C(NC(=O)OCC1c2ccccc2-c2ccccc21)C(=O)NC(CCC(=O)OC(C)(C)C)C(=O)OC(C)(C)C (stereo not drawn) (Fmoc-Val-Glu(OtBu)-OtBu; configuration not given here) get here?
Response: inactive

Prompt: For CCCCCCN(C(=O)Oc1ccccc1)C(C#N)c1ccccc1 (stereo not drawn) , which call appears in the assay record?
Response: inactive

Prompt: Could you please tell me the result logged for O=CC1=CCC2c3[nH]c4ccccc4c3CCN2C1 (stereo not drawn) in this assay?
Response: inactive

Prompt: Assay outcome for Cc1ccc(S(=O)(=O)NC(=O)NCC(=O)NCC(=O)O)cc1 : what was it?
Response: inactive

Prompt: Which result was noted for this molecule in the test: O=S(=O)(/C=C/c1ccc(Cl)cc1Cl)Cc1ccccc1CS(=O)(=O)/C=C/c1ccc(Cl)cc1Cl
Response: inactive

Prompt: Hi, do you know how COC(=O)N1CC(=O)C(C(=O)NC23CC4CC(CC(C4)C2)C3)C1 (stereo not drawn) came out in this test?
Response: inactive

Prompt: # outcome recorded in this test, key = CC(C)C(C/C=C1/CC(CO)(COC(=O)CC(C(C)C)C(C)C)OC1=O)C(C)C (stereo not drawn)
Response: inactive

Prompt: Please indicate how the test categorized CNC1C(=O)C(C)C(O)(C(CC(C)C(O)/C=C/C=C/CNC(=O)C(C)(C)C(O)\C(C)=C/C=C\C=C\Cc2cnc(C)o2)OC)C12C(=O)OC2C.CNC1C(=O)C(C)C(O)(C(CC(C)C(O)/C=C/C=C/CNC(=O)C(C)(C)C(O)\C(C)=C/C=C\C=C\Cc2cnc(C)o2)OC)C12C(=O)OC2COC (stereo not drawn) .
Response: active

Prompt: Please state the recorded outcome for this molecule: O=C(c1ccccc1)c1ccc2[nH]c(-c3c(Cl)c(Cl)c(Cl)c(Cl)c3C(=O)N/N=C/c3ccc(Cl)cc3)nc2c1
Response: inactive

Prompt: What was the test verdict on C=C(Cl)C(=C)CCC(Cl)C(C)(C)Cl (stereo not drawn) ?
Response: inactive

Prompt: Any idea what this test logged for O=C(O)CC(NC(=O)C(F)(F)F)C(=O)NC(Cc1ccc(O)cc1)C(=O)O (stereo not drawn) (Tfa-Asp-Tyr-OH; configuration not given here) ?
Response: inactive

Prompt: Entry CC1(C)/C(=N\NC(N)=O)C2CCC1C2 (stereo not drawn) : call = ?
Response: inactive

Prompt: Lab log entry: CN(C)C(=O)C(F)(F)C(c1ccccc1Br)C1C(=O)N(C)C(=O)N(C)C1=O (stereo not drawn) — outcome as called in the assay?
Response: inactive

Prompt: For COC(=O)C1CC(=O)O[C@H]1c1ccc(OC)c(OC)c1 (stereo partly drawn) , which call appears in the assay record?
Response: inactive

Prompt: Call for entry CCOC(=O)C1(C(=O)OCC)C[C@@H](C)[C@@H](O)C1 :
Response: inactive

Prompt: # outcome recorded in this test, key = O=[S@@]1Nc2ccc(Br)cc2S1
Response: inactive

Prompt: I'd appreciate the recorded outcome for Cc1cnc(-n2c(C)nc3cc(Cl)ccc3c2=O)s1 from this test.
Response: inactive

Measured values drawn from ChEMBL document CHEMBL1201862 for this set.
